# Procedure details: Test Example 2: saturation solubility in isotonic borate buffer (HPLC)
# Condition details: isotonic borate buffer, 20 °C, pH 7, aqueous buffer, thermodynamic from solid
Property: solubility at 6 h (µg/mL)

[A] CCCCCCC#Cc1nc(N)c2ncn([C@@H]3O[C@H](CO)[C@@H](O)[C@H]3O)c2n1
[B] Nc1nc(C#CCCCCN2C(=O)c3ccccc3C2=O)nc2c1ncn2[C@@H]1O[C@H](CO)[C@@H](O)[C@H]1O
[C] N#CCCCCC#Cc1nc(N)c2ncn([C@@H]3O[C@H](CO)[C@@H](O)[C@H]3O)c2n1
Enquiry: Let's sort these by solubility at 6 h, smallest first. Go ahead? List each label, following the requested order.
Return: A, B, C
(A: 300 µg/mL, B: 700 µg/mL, C: 16600 µg/mL)
